IC50 values for the molecules below.
Biological target: Aurora A (Homo sapiens)
Construct: cell lysates from Jurkat cells (ATCC TIB-152) used; endogenous in cells
Sequence (O14965 whole entry): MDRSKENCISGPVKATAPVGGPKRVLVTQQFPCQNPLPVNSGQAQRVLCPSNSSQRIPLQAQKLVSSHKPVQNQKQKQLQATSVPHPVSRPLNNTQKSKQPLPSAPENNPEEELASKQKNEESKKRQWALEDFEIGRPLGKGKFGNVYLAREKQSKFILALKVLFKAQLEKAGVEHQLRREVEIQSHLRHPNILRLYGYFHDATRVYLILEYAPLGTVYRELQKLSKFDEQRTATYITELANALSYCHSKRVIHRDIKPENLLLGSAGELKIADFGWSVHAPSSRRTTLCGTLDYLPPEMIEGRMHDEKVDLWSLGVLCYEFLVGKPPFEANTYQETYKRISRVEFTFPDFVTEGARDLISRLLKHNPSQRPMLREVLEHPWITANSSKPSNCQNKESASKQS
Test: Kinobeads assay, Aurora A
Conditions: lysate of pervanadate-treated Jurkat cells, read-out: Inhibition values (IC50) Aur A
Method: The compounds of the present invention as described in the previous examples were tested in a Kinobeads™ assay as described for ZAP-70 (WO-A 2007/137867). […] Bound proteins were then eluted and the presence of JAK2 and JAK3 was detected and quantified using specific antibodies in a dot blot procedure and the Odyssey infrared detection system. Dose response curves for individual kinases were generated and IC50 values calculated. […]
ENDPOINT_NAME: IC50

• Cn1cc(Nc2ncc3cnn(Cc4c(F)c(F)cc(N5CCOCC5=O)c4F)c3n2)cn1 = 100 to 1000 nM
• Cn1cc(Nc2ncc3cnn(Cc4cccc(N5CCNCC5)c4)c3n2)cn1 = 100 to 1000 nM
• CNC(=O)Cn1cc(Nc2ncc3cnn(Cc4cccc(N5CCOCC5)c4)c3n2)cn1 = 100 to 1000 nM
• Cn1cc(Nc2ncc3cnn(Cc4cc(N5CCOCC5)ccc4F)c3n2)cn1 = 1000 to 10000 nM
• Cn1cc(Nc2ncc3cnn(Cc4cc(F)cc(N5CCNCC5)c4F)c3n2)cn1 = 100 to 1000 nM
• OCCn1cc(Nc2ncc3cnn(Cc4cc(F)cc(N5CCOCC5)c4)c3n2)cn1 = 100 to 1000 nM
• Cn1cc(Nc2ncc3cnn(Cc4cccc(N5CCOCC5O)c4)c3n2)cn1 (stereo not drawn) = 1000 to 10000 nM
• Cn1cc(Nc2ncc3cnn(Cc4cccc(N5CCC6(COC6)C5)c4)c3n2)cn1 = 100 to 1000 nM
• CCn1cc(-c2cccc(Cn3ncc4cnc(Nc5cnn(C)c5)nc43)c2)cn1 = 100 to 1000 nM
• Cn1cc(Nc2ncc3cnn(Cc4cc(F)cc(N5CCOCC5)c4)c3n2)cn1 = 100 to 1000 nM
• OCCn1cc(Nc2ncc3cnn(Cc4cccc(N5CCOCC5)c4)c3n2)cn1 = 100 to 1000 nM
• O=C1CNCCN1c1cccc(Cn2ncc3cnc(Nc4cnn(CCO)c4)nc32)c1F = 100 to 1000 nM
• O=C1CC(Cn2cc(Nc3ncc4cnn(Cc5cc(F)cc(N6CCOCC6=O)c5)c4n3)cn2)CN1 (stereo not drawn) = 100 to 1000 nM
• Cn1cc(Nc2ncc3cnn(Cc4cccc(N5CCC(=O)CC5)c4)c3n2)cn1 = 100 to 1000 nM
• CC(C)n1cc(-c2cccc(Cn3ncc4cnc(Nc5cnn(C)c5)nc43)c2)cn1 = 100 to 1000 nM
• O=C1COCCN1c1cc(F)cc(Cn2ncc3cnc(Nc4cnn(CC5CCNC5)c4)nc32)c1 (stereo not drawn) = < 100 nM
• O=C1COCCN1c1cc(F)cc(Cn2ncc3cnc(Nc4cnn(CCS(=O)(=O)NC5CC5)c4)nc32)c1 = 100 to 1000 nM
• CN(C)CCCn1cc(Nc2ncc3cnn(Cc4cccc(N5CCOCC5=O)c4)c3n2)cn1 = 100 to 1000 nM
• Cn1cc(Nc2ncc3cnn(Cc4cccc(N5CCN(S(C)(=O)=O)CC5)c4)c3n2)cn1 = 100 to 1000 nM
• Cn1cc(Nc2ncc3cnn(Cc4cccc(NC5COC5)c4)c3n2)cn1 = < 100 nM
• OCCn1cc(Nc2ncc3cnn(Cc4cc(N5CCNCC5)cc(F)c4F)c3n2)cn1 = 100 to 1000 nM
• OCCn1cc(Nc2ncc3cnn(Cc4cc(F)cc(N5CCNCC5)c4F)c3n2)cn1 = ≥ 10000 nM
• Cn1cc(-c2cc(F)c(F)c(Cn3ncc4cnc(Nc5cnn(CCO)c5)nc43)c2)cn1 = 100 to 1000 nM
• c1cc(Cn2ncc3cnc(Nc4cnn(CC5CCCNC5)c4)nc32)cc(N2CCOCC2)c1 (stereo not drawn) = 1000 to 10000 nM
• Cn1cc(Nc2ncc3cnn(Cc4cccc(N5CCOCC5)n4)c3n2)cn1 = 100 to 1000 nM
• O=C1COCCN1c1cccc(Cn2ncc3cnc(Nc4cnn(CCO)c4)nc32)c1 = 100 to 1000 nM
• O=C1COCCN1c1cc(F)cc(Cn2ncc3cnc(Nc4cnn(CCO)c4)nc32)c1F = < 100 nM
• Cn1cc(Nc2ncc3cnn(Cc4cc(C(=O)N5CCOCC5)cc(F)c4F)c3n2)cn1 = < 100 nM
• Cc1c(Cn2ncc3cnc(Nc4cnn(C)c4)nc32)cccc1N1CCOCC1 = 100 to 1000 nM
• Cn1cc(Nc2ncc3cnn(Cc4cccc(C(=O)N5CCOCC5)c4F)c3n2)cn1 = 1000 to 10000 nM

Each recorded value in this set is attributed to patent US9040545B2.
